Target: recombinant human MAO-B (monoamine oxidase-B) (Homo sapiens)
Construct: purchased Sigma-Aldrich
Sequence (P27338 1-520): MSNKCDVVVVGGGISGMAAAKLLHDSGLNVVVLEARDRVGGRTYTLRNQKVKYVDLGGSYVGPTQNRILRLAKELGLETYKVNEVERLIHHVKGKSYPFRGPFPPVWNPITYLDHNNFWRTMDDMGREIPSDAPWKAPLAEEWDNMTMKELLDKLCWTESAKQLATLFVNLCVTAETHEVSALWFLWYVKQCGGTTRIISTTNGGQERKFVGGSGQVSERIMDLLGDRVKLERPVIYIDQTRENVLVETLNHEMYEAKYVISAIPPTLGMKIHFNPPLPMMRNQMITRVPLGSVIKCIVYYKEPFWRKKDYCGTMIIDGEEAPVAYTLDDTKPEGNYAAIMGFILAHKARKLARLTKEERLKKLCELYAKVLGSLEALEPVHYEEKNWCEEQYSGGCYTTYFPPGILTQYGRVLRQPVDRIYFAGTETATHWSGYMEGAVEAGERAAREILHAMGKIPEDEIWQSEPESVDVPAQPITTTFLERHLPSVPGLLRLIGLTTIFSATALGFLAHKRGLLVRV
Test: Activity evaluation on recombinant human MAO-B (Amplex Red/HRP-coupled assay, 1 mM benzylamine substrate)
Assay type: biochemical
Settings: 1 mM benzylamine, read-out: Inhibitory Activity (IC50, nM) MAO-B
Where a name gives a salt, the structure may show the parent alone.
So I've got a bunch of molecules here, and I need their IC50 values.
Answers are plain numbers, in nM.

| molecule | value.reported |
| --- | --- |
| NCC(Cn1ncn(Cc2ccc(C#Cc3ccc4c(n3)OCCN4)s2)c1=O)=C(F)F [Example 168, Ditrifluoroacetate] | 45000 |
| NCC(Cn1ncn(-c2cccc(-c3ccc4c(c3)OCO4)c2)c1=O)=C(F)F [Example 21, Trifluoroacetate] | 18000 |

# next molecule below
Query (molecule): NCC(Cn1ncn(-c2cccc(-c3ccc(C(F)(F)F)nc3)n2)c1=O)=C(F)F [Example 48, Trifluoroacetate] ; field requested: IC50
31000
